pIC50: −log10 of the molar value.
Reported Property: pIC50

Report the value of pIC50 obtained on prostacyclin (PGI2) synthetase (microsomal fraction of bovine aorta) (Bos taurus) for `O=C(O)CCCCCc1cccc2cncn12` .
Sequence (Q29626 whole entry): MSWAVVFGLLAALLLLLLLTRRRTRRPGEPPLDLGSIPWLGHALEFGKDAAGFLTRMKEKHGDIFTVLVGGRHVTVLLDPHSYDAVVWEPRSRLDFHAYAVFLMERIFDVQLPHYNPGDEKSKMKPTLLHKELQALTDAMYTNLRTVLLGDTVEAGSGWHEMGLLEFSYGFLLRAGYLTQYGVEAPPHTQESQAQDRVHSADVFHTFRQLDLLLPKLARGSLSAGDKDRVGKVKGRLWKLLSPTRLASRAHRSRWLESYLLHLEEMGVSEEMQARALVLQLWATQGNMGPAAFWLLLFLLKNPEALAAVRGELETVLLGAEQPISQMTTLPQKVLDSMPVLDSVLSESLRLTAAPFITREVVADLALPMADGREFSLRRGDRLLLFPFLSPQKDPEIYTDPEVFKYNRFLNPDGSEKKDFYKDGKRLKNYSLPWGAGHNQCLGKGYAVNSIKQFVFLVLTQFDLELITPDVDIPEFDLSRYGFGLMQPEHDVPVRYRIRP
< 4.00
